# target.or.test.system: GPR4 (Homo sapiens, UniProt P46093)
# Sequence (P46093 whole entry): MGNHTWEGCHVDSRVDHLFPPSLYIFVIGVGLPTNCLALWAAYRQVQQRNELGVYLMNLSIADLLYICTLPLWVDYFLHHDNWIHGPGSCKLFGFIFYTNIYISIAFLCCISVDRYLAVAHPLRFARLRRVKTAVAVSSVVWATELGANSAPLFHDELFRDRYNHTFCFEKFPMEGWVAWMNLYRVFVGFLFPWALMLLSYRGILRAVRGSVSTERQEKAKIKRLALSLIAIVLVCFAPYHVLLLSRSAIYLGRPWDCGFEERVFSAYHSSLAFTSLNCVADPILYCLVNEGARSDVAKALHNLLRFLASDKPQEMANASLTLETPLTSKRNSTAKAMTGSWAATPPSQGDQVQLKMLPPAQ
# assay.method.text: Antagonistic action on GPR4 (luciferase reporter in GPR4 assay cells induced by 17β-estradiol)
# conditions: 10 nmol/L 17β-estradiol, 6 hours, luciferase luminescence
Reported IC50 values for a set of molecules

molecule: CCc1nc2c(C)cc(C)nc2n1Cc1ccc2c(c1)CCc1cc(CN3CCOCC3)ccc1N2
IC50 [nM]: 5.8
--
molecule: CCc1nc2c(C)cc(C)nc2n1Cc1ccc2c(c1)CCc1cc(CN3CC(C)CC(C)C3)ccc1N2 (centres unmarked)
IC50 [nM]: 14
--
molecule: CCc1nc2c(C)cc(C)nc2n1Cc1ccc2c(c1)CCc1cc(CN3CC=CCC3)ccc1N2
IC50 [nM]: 3.2
--
molecule: CCc1nc2c(C)cc(C)nc2n1Cc1ccc2c(c1)CCc1cc(CN3CCN(C)CC3)ccc1N2
IC50 [nM]: 4
--
molecule: CCc1nc2c(C)cc(C)nc2n1Cc1ccc2c(c1)CCc1cc(CN3CCCC3)ccc1N2
IC50 [nM]: 2.3
